Give IC50 for every item shown.
Dear colleague, please return just the value in µM, with no unit written.

Query block: Please state recorded IC50 (tested on eeAChE (Electrophorus electricus)) of COc1ccccc1CN(C)CCCOc1ccc(/C=C/C(=O)c2c(O)cc(OC)c(O)c2OC)cc1 [Compound 17a]
Sequence (O42275 24-633): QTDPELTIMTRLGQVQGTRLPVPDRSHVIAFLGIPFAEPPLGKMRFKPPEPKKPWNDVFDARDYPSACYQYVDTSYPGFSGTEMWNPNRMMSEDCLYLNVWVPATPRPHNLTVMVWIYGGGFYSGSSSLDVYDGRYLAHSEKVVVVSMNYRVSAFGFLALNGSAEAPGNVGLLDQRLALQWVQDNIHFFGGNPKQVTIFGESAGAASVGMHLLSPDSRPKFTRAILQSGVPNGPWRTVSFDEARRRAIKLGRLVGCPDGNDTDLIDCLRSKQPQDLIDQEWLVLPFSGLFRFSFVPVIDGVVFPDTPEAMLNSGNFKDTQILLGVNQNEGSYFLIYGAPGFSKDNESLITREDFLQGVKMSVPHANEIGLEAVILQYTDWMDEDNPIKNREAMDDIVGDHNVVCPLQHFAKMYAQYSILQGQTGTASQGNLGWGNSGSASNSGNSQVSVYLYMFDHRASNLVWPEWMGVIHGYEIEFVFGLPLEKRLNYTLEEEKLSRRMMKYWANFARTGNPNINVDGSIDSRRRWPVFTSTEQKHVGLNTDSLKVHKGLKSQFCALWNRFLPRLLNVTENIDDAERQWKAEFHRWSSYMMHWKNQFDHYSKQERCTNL
Result block: 2.3

Query block: Value wanted: IC50 (eeAChE (Electrophorus electricus)) of entry CCN(CCCOc1ccc(/C=C/C(=O)c2c(O)cc(OC)c(O)c2OC)cc1)Cc1ccccc1OC [Compound 17b]
Result block: 3.16

Query block: Test system eeAChE (Electrophorus electricus); read-out IC50; what value for CCN(CCCCOc1ccc(/C=C/C(=O)c2c(O)cc(OC)c(O)c2OC)cc1)Cc1ccccc1OC [Compound 17d] ?
Result block: 3.68

Query block: Record COc1ccccc1CN(C)CCCCOc1ccc(/C=C/C(=O)c2c(O)cc(OC)c(O)c2OC)cc1 [Compound 17c] : what is its IC50 with eeAChE (Electrophorus electricus)?
Result block: 3.74

Query block: Request - read-out IC50 | tested on eeAChE (Electrophorus electricus) | compound CCN(CC)CCCCOc1ccc(/C=C/C(=O)c2c(O)cc(OC)c(OC)c2OC)cc1
Result block: 2.72

Query block: Record lookup: for eeAChE (Electrophorus electricus), what IC50 belongs to COc1ccccc1CN(C)CCCCOc1ccc(/C=C/C(=O)c2c(O)cc(OC)c(OC)c2OC)cc1 ?
Result block: 1.5

* * *

# target: Aβ1–42 fibrils (Homo sapiens, UniProt P05067)
# Sequence (P05067 672-713): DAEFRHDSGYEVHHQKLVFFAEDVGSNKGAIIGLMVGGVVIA
# protocol-text: Disaggregation of Cu2+-induced Aβ1–42 aggregation
# Format: biochemical
# reported-conditions: 25 μM; ThT assay
readout: Disaggregation of Aβ1–42 aggregation (%) Cu^2+-induced
The figure you give is taken to be in %; do not add the unit.

Query block: What value of Disaggregation of Aβ1–42 aggregation (%) Cu^2+-induced on Aβ1–42 fibrils (Homo sapiens, UniProt P05067) does COc1ccccc1CN(C)CCCOc1ccc(/C=C/C(=O)c2c(O)cc(OC)c(O)c2OC)cc1 [Compound 17a] have?
Result block: 84.6

Query block: # get_value(readout= Disaggregation of Aβ1–42 aggregation (%) Cu^2+-induced, system= Aβ1–42 fibrils (Homo sapiens, UniProt P05067)) for CCN(CCCCCCOc1ccc(/C=C/C(=O)c2c(O)cc(OC)c(OC)c2OC)cc1)Cc1ccccc1OC
Result block: 81.4

Query block: Provide the documented Disaggregation of Aβ1–42 aggregation (%) Cu^2+-induced with Aβ1–42 fibrils (Homo sapiens, UniProt P05067) as the system for CCN(CCCCOc1ccc(/C=C/C(=O)c2c(O)cc(OC)c(O)c2OC)cc1)Cc1ccccc1OC [Compound 17d]
Result block: 79.8

Query block: Requested read-out Disaggregation of Aβ1–42 aggregation (%) Cu^2+-induced, target or system Aβ1–42 fibrils (Homo sapiens, UniProt P05067), entry COc1ccccc1CN(C)CCCOc1ccc(/C=C/C(=O)c2c(O)cc(OC)c(OC)c2OC)cc1
Result block: 54.2

Query block: Item: CCN(CCCOc1ccc(/C=C/C(=O)c2c(O)cc(OC)c(O)c2OC)cc1)Cc1ccccc1OC [Compound 17b] Test system: Aβ1–42 fibrils (Homo sapiens, UniProt P05067) Read-out: Disaggregation of Aβ1–42 aggregation (%) Cu^2+-induced Value: ?
Result block: 82.8

Query block: Notebook entry, Aβ1–42 fibrils (Homo sapiens, UniProt P05067) assay: Disaggregation of Aβ1–42 aggregation (%) Cu^2+-induced of CCN(CCCOc1ccc(/C=C/C(=O)c2c(O)cc(OC)c(OC)c2OC)cc1)Cc1ccccc1OC = ?
Result block: 55.1

Query block: Checklist item: Disaggregation of Aβ1–42 aggregation (%) Cu^2+-induced tested on Aβ1–42 fibrils (Homo sapiens, UniProt P05067), entry COc1ccccc1CN(C)CCCCOc1ccc(/C=C/C(=O)c2c(O)cc(OC)c(OC)c2OC)cc1 , value?
Result block: 66.6

Query block: Missing value: Disaggregation of Aβ1–42 aggregation (%) Cu^2+-induced, Aβ1–42 fibrils (Homo sapiens, UniProt P05067), entry COc1ccccc1CN(C)CCCCCCOc1ccc(/C=C/C(=O)c2c(O)cc(OC)c(O)c2OC)cc1 [Compound 17e] . Fill in?
Result block: 83.7

Query block: What value of Disaggregation of Aβ1–42 aggregation (%) Cu^2+-induced on Aβ1–42 fibrils (Homo sapiens, UniProt P05067) does COc1ccccc1CN(C)CCCCCCOc1ccc(/C=C/C(=O)c2c(O)cc(OC)c(OC)c2OC)cc1 have?
Result block: 77.0

Query block: Could you share what Disaggregation of Aβ1–42 aggregation (%) Cu^2+-induced was measured for COc1ccccc1CN(C)CCCCOc1ccc(/C=C/C(=O)c2c(O)cc(OC)c(O)c2OC)cc1 [Compound 17c] , tested on Aβ1–42 fibrils (Homo sapiens, UniProt P05067)?
Result block: 79.1

Query block: Which measured Disaggregation of Aβ1–42 aggregation (%) Cu^2+-induced belongs to CCN(CCCCOc1ccc(/C=C/C(=O)c2c(O)cc(OC)c(OC)c2OC)cc1)Cc1ccccc1OC , tested on Aβ1–42 fibrils (Homo sapiens, UniProt P05067)?
Result block: 63.2
